Target: T1, human CD81 mutant S168T (human, UniProt P60033 1-236, limits assumed)
T1 construct: as m30; not shown: C-terminal V5 and 6xHis tags
T1 sequence: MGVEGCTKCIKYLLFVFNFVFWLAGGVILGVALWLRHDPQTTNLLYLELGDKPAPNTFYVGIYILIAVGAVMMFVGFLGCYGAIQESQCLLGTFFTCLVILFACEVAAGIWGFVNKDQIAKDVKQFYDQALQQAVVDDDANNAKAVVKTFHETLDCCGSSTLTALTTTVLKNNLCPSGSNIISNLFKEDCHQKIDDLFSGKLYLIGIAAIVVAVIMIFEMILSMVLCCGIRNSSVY
Test: ELISA
observation.type: relative binding affinity

binder="002-A07 N113S (antibody, human IgG4 S228P, lambda, V domains shown, IgG4 S228P; glycosylation site mutant of 002-A07 VL) VH: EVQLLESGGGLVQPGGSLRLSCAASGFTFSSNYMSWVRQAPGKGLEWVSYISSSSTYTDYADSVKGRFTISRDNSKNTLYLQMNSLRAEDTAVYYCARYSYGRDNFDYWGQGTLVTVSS VL: QSVLTQPPSASGTPGQRVTISCTGSTSNIGAGYDTHWYQQLPGTAPKLLIYGNSNRPSGVPDRFSGSKSGTSASLAISGLRSEDEADYYCQSYDTSLSVWVFGGGTKLTVLG" result="< 20%"
binder="002-F01 (antibody, human IgG4 S228P, lambda, V domains shown, IgG4 S228P) VH: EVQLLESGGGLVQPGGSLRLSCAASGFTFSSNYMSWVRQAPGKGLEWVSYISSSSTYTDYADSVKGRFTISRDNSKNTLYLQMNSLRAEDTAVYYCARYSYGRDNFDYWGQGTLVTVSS VL: QSVLTQPPSASGTPGQRVTISCTGSTSNIGAGYDTHWYQQLPGTAPKLLIYGNSNRPSGVPDRFSGSKSGTSASLAISGLRSEDEADYYCQSYDTNLSAWVFGGGTKLTVLG" result="< 20%"
